Form field: IC50 (one value per entry).
biological target: human TACE (Homo sapiens (Human), UniProt P78536); conditions: read-out: TACE potency IC50
Sequence (P78536 whole entry, looked up, change not shown): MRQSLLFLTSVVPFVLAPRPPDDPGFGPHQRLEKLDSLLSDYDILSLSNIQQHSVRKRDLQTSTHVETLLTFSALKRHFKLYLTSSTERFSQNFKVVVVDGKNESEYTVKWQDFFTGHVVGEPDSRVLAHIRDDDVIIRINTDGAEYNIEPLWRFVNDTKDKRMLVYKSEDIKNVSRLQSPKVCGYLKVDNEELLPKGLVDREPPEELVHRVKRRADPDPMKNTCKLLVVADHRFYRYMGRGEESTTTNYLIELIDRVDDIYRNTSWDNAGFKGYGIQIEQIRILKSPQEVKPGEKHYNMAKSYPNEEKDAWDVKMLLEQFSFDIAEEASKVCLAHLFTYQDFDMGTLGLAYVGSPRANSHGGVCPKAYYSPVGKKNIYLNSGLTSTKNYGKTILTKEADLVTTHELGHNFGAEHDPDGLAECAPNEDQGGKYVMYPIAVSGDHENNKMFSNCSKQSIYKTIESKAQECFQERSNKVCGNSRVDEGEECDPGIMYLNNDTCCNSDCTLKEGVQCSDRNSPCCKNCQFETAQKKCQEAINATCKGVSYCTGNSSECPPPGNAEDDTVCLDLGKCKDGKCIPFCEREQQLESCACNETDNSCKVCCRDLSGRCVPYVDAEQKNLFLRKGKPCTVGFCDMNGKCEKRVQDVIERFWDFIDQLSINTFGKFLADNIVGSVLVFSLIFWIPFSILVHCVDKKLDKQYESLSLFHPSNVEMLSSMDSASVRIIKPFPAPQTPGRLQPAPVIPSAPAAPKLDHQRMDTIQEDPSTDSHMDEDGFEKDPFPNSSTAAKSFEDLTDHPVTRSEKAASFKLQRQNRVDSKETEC
Quantity Name: IC50

molecule="Cc1ccc(C2(CCC(=O)N3CCN(c4cccc(Cl)c4)CC3)NC(=O)NC2=O)cc1 (stereo not shown)" recorded_result="1.78 µM"
molecule="CC1CN(C(=O)CCC2(c3cccnc3)NC(=O)NC2=O)CCN1c1cc(Cl)cc(Cl)c1 (stereo not shown)" recorded_result="> 4 µM"
molecule="O=C1NC(=O)C(CCC(=O)N2CCN(c3ccncc3)CC2)(C2CC2)N1 (stereo not shown)" recorded_result="> 20 µM"
molecule="Cc1ccc(C2(CCC(=O)N3CCN(c4cc(F)cc(Cl)c4)[C@@H](C)C3)NC(=O)NC2=O)cn1 (stereo partly shown)" recorded_result="> 4 µM"
molecule="CC(CC1(C2CC2)NC(=O)NC1=O)C(=O)N1CCN(c2cc(F)cc(Cl)c2)[C@@H](C)C1 (stereo partly shown) [compound 194]" recorded_result="> 4 µM"
molecule="CC1(CCC(=O)N2CCN(c3ccc(F)c(Cl)c3)CC2)NC(=O)NC1=O (stereo not shown)" recorded_result="> 20 µM"
molecule="C[C@H]1CN(C(=O)CCC2(C3CC3)NC(=O)NC2=O)CCN1c1cncc(C#N)c1 (stereo partly shown)" recorded_result="> 20 µM"
molecule="O=C1NC(=O)C(CCC(=O)N2CCN(c3ccc(F)c(F)c3)CC2)(c2ccccn2)N1 (stereo not shown)" recorded_result="> 4 µM"
molecule="COc1ccc(C2(CCC(=O)N3CCN(c4cc(F)cc(F)c4)[C@@H](C)C3)NC(=O)NC2=O)cn1 (stereo partly shown)" recorded_result="> 4 µM"
molecule="C[C@H]1CN(C(=O)CCC2(C3CC3)NC(=O)NC2=O)CCN1c1cccc2ccoc12 (stereo partly shown)" recorded_result="> 20 µM"
molecule="C[C@H]1CN(C(=O)CCC2(C3CC3)NC(=O)NC2=O)CCN1c1cc(Cl)ncn1 (stereo partly shown)" recorded_result="> 20 µM"
molecule="CC(=O)N1CC(C2(CC(C)C(=O)N3CCN(c4ccc(F)c(F)c4)CC3)NC(=O)NC2=O)C1 (stereo not shown)" recorded_result="> 3.78 µM"
molecule="COCC1(CC(C)C(=O)N2CCN(c3cc(Cl)cc(Cl)c3)[C@@H](C)C2)NC(=O)NC1=O (stereo partly shown)" recorded_result="> 3.98 µM"
molecule=C[C@]1(CCC(=O)N2CCN(c3cc(Cl)cc(Cl)c3)CC2)NC(=O)NC1=O recorded_result="1.87 µM"
molecule="CC1(CCC(=O)N2CCN(c3ccc(Cl)c(F)c3)CC2)NC(=O)NC1=O (stereo not shown)" recorded_result="> 20 µM"
molecule="C[C@H]1CN(C(=O)CCC2(C3CC3)NC(=O)NC2=O)CCN1c1cccc(-c2cnn(C)c2)c1 (stereo partly shown)" recorded_result="> 20 µM"
